- System: Saccharomyces cerevisiae
- Experiment: protein stability index of tFT-peptide fusion (C-terminal peptide) (PSI (0-1 scale)); higher = more stable (slower turnover)
- Assay setup: genetic background: das1 deletion; temperature: 30 C
Measurement label: protein stability index
Would you mind answering with just the numeric figure?

| Seq text | protein stability index |
| --- | --- |
| WTWLDGKFPTFA [GRE3 C-terminal 12 aa] | 0.751 |
| QFQTLNNLYFAQ [IME4 C-terminal 12 aa] | 0.715 |
| KLGEAEVQGLIM [YDR340W C-terminal 12 aa] | 0.721 |
| NCIETFVAEKTT [SRB6 C-terminal 12 aa] | 0.679 |

Query: Quick one: give measured protein stability index for RSHSRKNSLSLL [SPO24 C-terminal 12 aa]
Reply: 0.72

Query: Give protein stability index for the following sequence: IEIVKDAKRKGY [MRP21 C-terminal 12 aa]
Reply: 0.702

Query: Assign protein stability index to the following record: PDDFEFGDDDFM [HCR1 C-terminal 12 aa]
Reply: 0.712

Query: For the sequence TRSAWDRAQRRL [LCP5 C-terminal 12 aa] , give its reported protein stability index.
Reply: 0.697

Query: // fetch protein stability index given entry KGAFQKVAATSR [RPL24A C-terminal 12 aa]
Reply: 0.71

Query: For the sequence KMLWQGITDYYI [YOL163W C-terminal 12 aa] , report protein stability index.
Reply: 0.736

Query: Give protein stability index for the following sequence: RPMQHMYINNFT [YAL026C-A C-terminal 12 aa]
Reply: 0.719

Query: Hello, please tell me recorded protein stability index for this one: ILTAEKMRGNGN [RRP4 C-terminal 12 aa]
Reply: 0.686

---

- Test system: Saccharomyces cerevisiae
- Experiment: protein stability index of tFT-peptide fusion (C-terminal peptide) (PSI (0-1 scale)); higher = more stable (slower turnover)
- Assay setup: genetic background: wild type; temperature: 37 C
Measurement label: protein stability index
// keep it numeric: no unit symbol after the value

| Seq text | protein stability index |
| --- | --- |
| LHLLFLPFVVCL | 0.113 |
| LFHVWSLRFFWL | 0.434 |
| AFRRFLLYCRFI | 0.201 |
| EKIIVAVLFVVP | 0.439 |
| VFILGFLCLLFF | 0.445 |

Query: Tell me its protein stability index given CVGRPIALAVRT as the entry.
Reply: 0.52

Query: Identify the reported protein stability index for the following entry. GLSLVCWIVVLG
Reply: 0.318

Query: For the sequence WFVFVFCSPRSS , give its measured protein stability index value.
Reply: 0.568

---

- Test system: Saccharomyces cerevisiae
- Experiment: protein stability index of tFT-peptide fusion (C-terminal peptide) (PSI (0-1 scale)); higher = more stable (slower turnover)
- Assay setup: genetic background: das1 deletion; temperature: 30 C
Measurement label: protein stability index
Reply with the value as a number alone.

Example results:
| Seq text | System tested | protein stability index |
| --- | --- | --- |
| QHYDEYYHELTN [PHO8 C-terminal 12 aa] | Saccharomyces cerevisiae | 0.696 |
| QGHGPVSPSPTK [PTM1 C-terminal 12 aa] | Saccharomyces cerevisiae | 0.701 |
| PLSYDPLGNLIR [TSR3 C-terminal 12 aa] | Saccharomyces cerevisiae | 0.734 |
| KKKYKFHQGLSI [SOL2 C-terminal 12 aa] | Saccharomyces cerevisiae | 0.699 |
| EVSTEDTVHDEL [EUG1 C-terminal 12 aa] | Saccharomyces cerevisiae | 0.675 |

Query: Provide measured protein stability index value, entry: YGTSYVFAISFK [YNL266W C-terminal 12 aa]
Reply: 0.602

Query: Answer with the recorded protein stability index for the sequence listed here: LIEKNFLSSHAG [YJR071W C-terminal 12 aa]
Reply: 0.716

Query: Dear colleague, please send me the reported protein stability index for LGNNAVGLAKAI [PEP4 C-terminal 12 aa] when you can.
Reply: 0.7

Query: Give the reported protein stability index for this sequence. QREEALISLNDW [REV3 C-terminal 12 aa]
Reply: 0.726

Query: Identify protein stability index associated with the sequence MFGVHDKSVIIE [NSE5 C-terminal 12 aa]
Reply: 0.692

Query: Note down protein stability index recorded for AIARCALGETLL [CAR1 C-terminal 12 aa]
Reply: 0.685

Query: For the sequence DTSLYRYRSYGY [PUF2 C-terminal 12 aa] , report protein stability index.
Reply: 0.701

---

The entries below are paired with their reported protein stability index.
- Test system: Saccharomyces cerevisiae
- Experiment: protein stability index of tFT-peptide fusion (C-terminal peptide) (PSI (0-1 scale)); higher = more stable (slower turnover)
- Assay setup: genetic background: wild type; temperature: 30 C
A bare number is all that is needed in reply.

Use these answered entries as a reference point.
| Seq text | protein stability index |
| --- | --- |
| LLVVFSCFTFMF | 0.279 |
| VFFCVLRVFFSA | 0.132 |
| CLVKIVIFFLFS | 0.211 |
| LLVLPFFSLSRF | 0.763 |
| LVCLFFLSSLFF | 0.464 |
| CLLVCCCFYRNV | 0.399 |

Query: Provide protein stability index value for the following sequence: VIAFFSVLKRYV
Reply: 0.241

Query: Indicate the recorded protein stability index value for this sequence: FALFLFFGPLIV
Reply: 0.331

Query: Input LFWTWVLVGVSV , output reported protein stability index.
Reply: 0.164

Query: Give the reported protein stability index for this sequence. LDFPPLRLILRL
Reply: 0.538

Query: Supply protein stability index value. Item: IWIRLGSENTVI
Reply: 0.653

---

- System: Saccharomyces cerevisiae
- Experiment: protein stability index of tFT-peptide fusion (C-terminal peptide) (PSI (0-1 scale)); higher = more stable (slower turnover)
- Assay setup: genetic background: wild type; temperature: 30 C
Measurement label: protein stability index
Format: numeric value only, no unit, no commentary.

Query: Recall the reported protein stability index of QIITISNANSHA [MBP1 C-terminal 12 aa] when tested on Saccharomyces cerevisiae.
Reply: 0.688

---

- Test system: Saccharomyces cerevisiae
- Experiment: protein stability index of tFT-peptide fusion (C-terminal peptide) (PSI (0-1 scale)); higher = more stable (slower turnover)
- Assay setup: genetic background: wild type; temperature: 30 C
# label = satisfied if protein stability index >= 0.7 else not satisfied

Completed entries (count: 8):
| Seq text | Class |
| --- | --- |
| VCPRLISPLILL | not satisfied |
| LTVGPCQPAGEA | satisfied |
| SLSCYSFFVLAL | not satisfied |
| PRTSSPPRPFRF | not satisfied |
| FPTLVRKFINAI | not satisfied |
| SFILRRISSAIS | not satisfied |
| VCLFRLVVFFPV | not satisfied |
| SFLHLLCSFVLL | not satisfied |

Query: // inclusive: protein stability index at least 0.7? input: WLAVVGRDGFLG
Reply: satisfied

Query: Hello, I need to know if VLRPFTPPSSRF has measured protein stability index not below 0.7. Thanks!
Reply: satisfied

Query: Quick check, protein stability index >= 0.7? SMKAYRTLKTRL
Reply: not satisfied

Query: Textbook exercise: given the entry INKLRLNKKKSF , state whether its protein stability index is greater than or equal to 0.7.
Reply: not satisfied

---

Reported protein stability index values for the following sequences.
- Tested on: Saccharomyces cerevisiae
- Experiment: protein stability index of tFT-peptide fusion (C-terminal peptide) (PSI (0-1 scale)); higher = more stable (slower turnover)
- Assay setup: genetic background: das1 deletion; temperature: 37 C
Answer with a bare number; do not write a unit.

Record excerpt, results attached:
| Seq text | Observed value |
| --- | --- |
| PACPPLPPRSPS | 0.737 |
| VHNIDLFVVCYI | 0.482 |
| RLVYSQKRWSLF | 0.764 |
| GGGGVFGVWVWM | 0.656 |

Now let's try a different one.
Query: In one line, give reported protein stability index of the entry SPLASLRFWCFC .
Reply: 0.778

---

- Test system: Saccharomyces cerevisiae
- Experiment: protein stability index of tFT-peptide fusion (C-terminal peptide) (PSI (0-1 scale)); higher = more stable (slower turnover)
- Assay setup: genetic background: wild type; temperature: 30 C
Response key: MET means protein stability index >= 0.7; NOT MET means protein stability index < 0.7.

For orientation, consider the following solved cases.
| Seq text | Class |
| --- | --- |
| RKKRRKVKRSEK | NOT MET |
| TYSILLRVNCFK | NOT MET |
| TNGVNHIDAHGQ | NOT MET |
| LVSWAWIWIFVF | NOT MET |
| TLPARPSVPLPP | NOT MET |

Query: Decide: protein stability index of NYYLPLESCTIG >= 0.7?
Reply: NOT MET

Query: Form field: protein stability index at least 0.7? Entry: RGPRSSGRKGIR
Reply: NOT MET

Query: Check this sequence for protein stability index at or above 0.7: LQKNKIPTKKKD
Reply: NOT MET

Query: Could you please find out whether SGSVLHEFILVV has protein stability index that meets 0.7 or exceeds it?
Reply: NOT MET

Query: Could you please find out whether HILINTCSCASL has protein stability index that meets 0.7 or exceeds it?
Reply: NOT MET

Query: Given the entry GGGGGAGGDGRG , answer whether its protein stability index meets or surpasses 0.7.
Reply: NOT MET

Query: Confirm if protein stability index reported for the sequence GRRGGRLSWAPG is 0.7 or above.
Reply: NOT MET

Query: Is the recorded value of protein stability index equal to or greater than 0.7 for this sequence? LSDLDSMVMIVP
Reply: MET

Query: Does the reported protein stability index for QGILVGCCYVLC fall at or above the 0.7 mark?
Reply: NOT MET

Query: Assess whether reported protein stability index for YESHVLDRMDGR sits at 0.7 or higher.
Reply: NOT MET

Query: Has KKKKTKKSKQKK a recorded protein stability index greater than or equal to 0.7?
Reply: MET

Query: Tell me whether protein stability index is at least 0.7 here: RRVPVHIHFSLF
Reply: NOT MET

Query: Can SLPLPPCLSPLQ be said to have protein stability index at or above 0.7?
Reply: MET

Query: Decide: protein stability index of KGTRKPSTKIIV >= 0.7?
Reply: NOT MET

Query: Identify whether the reported protein stability index of the following sequence is 0.7 or greater: PPSLPLPAPPPP
Reply: NOT MET

Query: Exam item: decide whether the reported protein stability index for TKLKKKGTKKKR is at least 0.7.
Reply: NOT MET

Query: API: above_or_equal(metric=protein stability index, cutoff=0.7) for item WNRNVEILSALA
Reply: NOT MET

Query: Does the reported protein stability index for GSNQYLNNTYLI fall at or above the 0.7 mark?
Reply: NOT MET

These measurements were taken from the supplement of paper PMC10724198.
